biological target: human pulmonary SP-A protein in human lung tissue (Homo sapiens, endogenous lung tissue, UniProt Q8IWL2)
Sequence (Q8IWL2 21-248): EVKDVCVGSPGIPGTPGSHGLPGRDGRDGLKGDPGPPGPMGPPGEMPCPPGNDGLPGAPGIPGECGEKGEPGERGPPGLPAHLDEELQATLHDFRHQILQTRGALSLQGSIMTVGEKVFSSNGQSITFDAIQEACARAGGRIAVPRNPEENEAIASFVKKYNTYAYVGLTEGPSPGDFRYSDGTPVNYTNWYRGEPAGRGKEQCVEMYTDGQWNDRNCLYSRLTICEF

binder	binding result
Nb29 (VHH) VHH: QVKLVESGGGSVQAGGSLRLSCTASGSDYRWMYIARFRQCPGKEREGVAAIYTDDTDDSSPIYATSAKGRFTISQDKDKNAVYLQMNSPKPEDTAMYYCAARAFGGTWSLSSPDDFSAWGQGTQVTVSS	binds
Nb17 (VHH) VHH: QLQLVESGGGLVQPGGSLRLACAASGFNLDDYADIGWFRQAPGKERERVLCITISDGTTYYEDSGKGRFSISTDIAKNTVFLQMDSLKAEDTAVYYCAGDPAPFCLYNTYVPRTWGQGTQVTVSS	binds
Nb6 (VHH) VHH: QLQLVESGGDLAQPGGSLTLSCTASGTFKIYSMGWYRRPQRELVAEMLNGGDTQYSDSVKGRFTISRTNNTMYLHMNNLKPEDTAVYYCNLQDWYSEPAGDYWGPGTQVTVSS	binds
